Recorded pIC50, one value per entry.
System: T1, soluble human FcRn (human, UniProt P55899 24-297; P61769 21-119, biotinylated (Sulfo-NHS-LC-Biotin) in the ELISA; amine-coupled to CM5 chip in SPR)
T1 construct: also called shFcRn; biotinylated shFcRn
T1 sequence (P55899 24-297 limits assumed, chain 1 of 2): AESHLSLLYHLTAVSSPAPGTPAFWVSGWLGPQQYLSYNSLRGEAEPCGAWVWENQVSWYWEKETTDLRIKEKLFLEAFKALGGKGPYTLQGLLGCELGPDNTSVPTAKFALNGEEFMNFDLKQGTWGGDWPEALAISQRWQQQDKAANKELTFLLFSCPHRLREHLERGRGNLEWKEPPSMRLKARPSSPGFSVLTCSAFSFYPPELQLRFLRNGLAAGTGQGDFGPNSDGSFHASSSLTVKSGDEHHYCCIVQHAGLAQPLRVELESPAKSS
T1 sequence (P61769 21-119 limits assumed, chain 2 of 2): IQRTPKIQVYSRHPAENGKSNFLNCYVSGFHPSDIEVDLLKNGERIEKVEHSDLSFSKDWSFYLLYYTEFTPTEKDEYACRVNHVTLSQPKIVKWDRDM
Assay overview: ELISA, competitor human IgG
Bridge positions count the residues as written; N and C are the ends. Ends that are not written are not given here.
Lab note: report pIC50 as minus log10 of the concentration in molar units, number only.

Use the examples below as a reference point.
[[record]]
binder = "CTGHFGGLYPC-NH2 (disulfide 1-11 (inferred)) [SEQ ID NO:19]"
parameter = "pIC50"
assay_value = 3.96

[[record]]
binder = "FCTGHFGGLYPCNGP-NH2 (disulfide 2-12 (inferred)) [SEQ ID NO:22]"
parameter = "pIC50"
assay_value = 4.17

[[record]]
binder = "AGQRFCTGHFGGLYPCNGPGTGGGK-NH2 (disulfide 6-16 (inferred)) [SEQ ID NO:6]"
parameter = "pIC50"
assay_value = 4.44


Consider the additional binder presented here.
pIC50 measured on CTGHFGGLYPCNGP-NH2 (disulfide 1-11 (inferred)) [SEQ ID NO:17] = 3.62
